Consider the following pIC50 data for Histone deacetylase 2 (Homo sapiens), collected from several reports.
pIC50: −log10 of the molar value.
endpoint_label: pIC50

- structure_string: "C/C=C1\\NC(=O)c2nc(ccc2SC)CNC(=O)C[C@@H](/C=C/CCSC(=O)CCCCCCC)OC(=O)[C@H](C(C)C)NC1=O"
  reported_relation: "="
  test_result: 7.39
- structure_string: "Nc1ccc(-c2ccc(F)cc2)cc1NC(=O)c1ncc(N2CCNCC2)s1"
  reported_relation: ">"
  test_result: 8.00
- structure_string: "C/C=C1\\NC(=O)c2cccc(n2)CNC(=O)C[C@@H](/C=C/CCSC(=O)CCCCCCC)OC(=O)[C@H](CC(C)C)NC1=O"
  reported_relation: "="
  test_result: 7.44
- structure_string: "C/C=C1\\NC(=O)c2ccc(F)c(n2)CNC(=O)C[C@@H](/C=C/CCSC(=O)CC)OC(=O)[C@H](C(C)C)NC1=O"
  reported_relation: "="
  test_result: 7.59
- structure_string: "COc1ccc(NC(=O)N2CCC(Nc3ncc(C(=O)NO)cn3)(c3ccccc3)CC2)cc1"
  reported_relation: "="
  test_result: 7.62
- structure_string: "CC(=O)N1CCC(Nc2ncc(C(=O)NO)cn2)(c2ccccc2)CC1"
  reported_relation: "="
  test_result: 6.60
- structure_string: "C/C=C1\\NC(=O)c2cc(SC)cc(n2)CNC(=O)C[C@@H](/C=C/CCSC=O)OC(=O)[C@H](C(C)C)NC1=O"
  reported_relation: "="
  test_result: 7.28

----------
Consider the following IC50 data for UniProtKB Q92769, collected from several reports.

- structure_string: "COc1ccc2c(c1)NC(=O)N(Cc1ccc(C(=O)Nc3ccccc3N)cc1)S2(=O)=O"
  IC50: "< 50 nM"
- structure_string: "O=C(NO)c1ccc(Cn2nnc(-c3cccs3)n2)cc1"
  IC50: "958 nM"
- structure_string: "Nc1cc(F)ccc1NC(=O)c1ccc2c(cnn2CC2CC2)c1"
  IC50: "5000 to 10000 nM"
- structure_string: "C/C=C1\\NC(=O)c2nc(ccc2F)CNC(=O)C[C@@H](/C=C/CCSC(=O)CCCCCCC)OC(=O)[C@H](C(C)C)NC1=O"
  IC50: "56 nM"
- structure_string: "C/C=C1\\NC(=O)c2cccc(n2)CNC(=O)C[C@@H](/C=C/CCSC(C)=O)OC(=O)[C@H](Cc2ccccc2)NC1=O"
  IC50: "261 nM"
- structure_string: "Fc1ccc(C2(Nc3ncc(-c4nnc(C(F)F)o4)cn3)CC2)c(Cl)c1"
  IC50: "> 30000 nM"
- structure_string: "Nc1ccc(F)cc1NC(=O)c1ccc(CN2C(=O)Nc3ccccc3S2(=O)=O)cc1"
  IC50: "< 50 nM"
- structure_string: "Nc1ccccc1NC(=O)c1ccc(COc2nc3cccnc3[nH]2)s1"
  IC50: "> 1000 nM"

----------
Consider the following log10 of IC50 data for Histone deacetylase 2 (Homo sapiens, UniProt Q92769), collected from several reports.
endpoint_label: log10 of IC50 (log10 of the value in nM)

- structure_string: "C/C=C1\\NC(=O)c2cc(SCCC)cc(n2)CNC(=O)C[C@@H](/C=C/CCSC(=O)CCCCCCC)OC(=O)[C@H](CC)NC1=O"
  test_result: 1.51
- structure_string: "O=C(CCCCCCN(c1ccccn1)c1cc(OCc2ccccc2)ccn1)NO"
  test_result: 2.79
- structure_string: "C/C=C1\\NC(=O)c2cccc(n2)CNC(=O)C[C@@H](/C=C/CCSC(=O)CCCCCCC)OC(=O)[C@H](c2ccc(O)cc2)NC1=O"
  test_result: 1.92
- structure_string: "CN(C)c1cccc(-c2nnc(Sc3c(F)cc(C(=O)NO)cc3F)n2C)c1"
  test_result: 4.14
- structure_string: "C=C1NC(=O)c2cccc(n2)CNC(=O)C[C@@H](/C=C/CCSC(=O)CCCCCCC)OC(=O)[C@H](C(C)C)NC1=O"
  test_result: 1.72
- structure_string: "C/C=C1\\NC(=O)c2cccc(n2)CNC(=O)C[C@@H](/C=C/CCSC(=O)CCCCCCC)OC(=O)[C@H](C(C)C)NC1=O"
  test_result: 1.34
- structure_string: "C/C=C1\\NC(=O)c2nc(ccc2F)CNC(=O)C[C@@H](/C=C/CCSC(=O)CCCCCC)OC(=O)[C@H](C(C)C)NC1=O"
  test_result: 1.63
- structure_string: "C/C=C1\\NC(=O)c2cccc(n2)CNC(=O)C[C@@H](/C=C/CCSC(=O)CCCCCCC)OC(=O)[C@@H](C)NC1=O"
  test_result: 1.58
- structure_string: "C/C=C1\\NC(=O)c2cc(SC)cc(n2)CNC(=O)C[C@@H](/C=C/CCSC(C)=O)OC(=O)[C@H](CCCCN)NC1=O"
  test_result: 1.40
